# condition-notes: in methanol, 283.15 K
quantity-measured: solubility (mole fraction)
// return just the number, without any unit appended

Lookup: Given the compound CCc1cccc(CC)c1/N=C(C)/C=C(/C)Nc1c(CC)cccc1CC , write its reported solubility (mole fraction).
Found: 0.00058

----------
# condition-notes: in n-hexane, 273.15 K
quantity-measured: solubility (mole fraction)
A bare number is all that is needed in reply.

Lookup: Tell me its solubility (mole fraction) given CCc1cccc(CC)c1/N=C(C)/C=C(/C)Nc1c(CC)cccc1CC as the entry.
Found: 0.0478

----------
# condition-notes: in toluene, 298.15 K
quantity-measured: solubility (mole fraction)

Lookup: Please list solubility (mole fraction) recorded for the molecule CCc1cccc(CC)c1/N=C(C)/C=C(/C)Nc1c(CC)cccc1CC
Found: 0.259

----------
# condition-notes: in methanol, 313.15 K
quantity-measured: solubility (mole fraction)
I only need the number, thanks.

Lookup: Determine its reported solubility (mole fraction): CCc1cccc(CC)c1/N=C(C)/C=C(/C)Nc1c(CC)cccc1CC
Found: 0.0022

----------
# condition-notes: in ethanol, 283.15 K
quantity-measured: solubility (mole fraction)
Note: the reply should be a number with no unit written.

Lookup: Give the value of solubility (mole fraction) reported for the following: CCc1cccc(CC)c1/N=C(C)/C=C(/C)Nc1c(CC)cccc1CC
Found: 0.00258

----------
# condition-notes: in ethanol, 293.15 K
quantity-measured: solubility (mole fraction)
Please respond with just the number, no unit label.

Lookup: Retrieve solubility (mole fraction) measured for CCc1cccc(CC)c1/N=C(C)/C=C(/C)Nc1c(CC)cccc1CC and print it.
Found: 0.00369

----------
# condition-notes: in methanol, 273.15 K
quantity-measured: solubility (mole fraction)
Please give only the number in your answer, with no unit.

Lookup: Please supply the value of reported solubility (mole fraction) for the item CCc1cccc(CC)c1/N=C(C)/C=C(/C)Nc1c(CC)cccc1CC
Found: 0.00037

----------
# condition-notes: in diethyl ether, 293.15 K
quantity-measured: solubility (mole fraction)

Lookup: State, in one line, measured solubility (mole fraction) of CCc1cccc(CC)c1/N=C(C)/C=C(/C)Nc1c(CC)cccc1CC
Found: 0.215

----------
# condition-notes: in methanol, 278.15 K
quantity-measured: solubility (mole fraction)
Response field accepts a number only; no unit should be typed.

Lookup: Input CCc1cccc(CC)c1/N=C(C)/C=C(/C)Nc1c(CC)cccc1CC , output reported solubility (mole fraction).
Found: 0.00047

----------
# condition-notes: in n-hexane, 283.15 K
quantity-measured: solubility (mole fraction)
Could you respond with only the numeric value?

Lookup: Please list solubility (mole fraction) recorded for the compound CCc1cccc(CC)c1/N=C(C)/C=C(/C)Nc1c(CC)cccc1CC
Found: 0.0769

----------
# condition-notes: in THF, 283.15 K
quantity-measured: solubility (mole fraction)
I'd appreciate a reply containing only the number, no unit.

Lookup: Read the entry CCc1cccc(CC)c1/N=C(C)/C=C(/C)Nc1c(CC)cccc1CC and write its reported solubility (mole fraction).
Found: 0.186

----------
# condition-notes: in methanol, 293.15 K
quantity-measured: solubility (mole fraction)
Please reply with the number alone, leaving off any unit.

Lookup: Specify solubility (mole fraction) for CCc1cccc(CC)c1/N=C(C)/C=C(/C)Nc1c(CC)cccc1CC and stop.
Found: 0.00089

----------
# condition-notes: in ethanol, 278.15 K
quantity-measured: solubility (mole fraction)
Quick one: just the number, no unit, thanks!

Lookup: Tell me measured solubility (mole fraction) for CCc1cccc(CC)c1/N=C(C)/C=C(/C)Nc1c(CC)cccc1CC please.
Found: 0.0022

----------
# condition-notes: in THF, 273.15 K
quantity-measured: solubility (mole fraction)

Lookup: Given CCc1cccc(CC)c1/N=C(C)/C=C(/C)Nc1c(CC)cccc1CC , respond with its solubility (mole fraction).
Found: 0.147

----------
# condition-notes: in methanol, 303.15 K
quantity-measured: solubility (mole fraction)
// return a plain number; no unit text

Lookup: Fill in solubility (mole fraction) for record CCc1cccc(CC)c1/N=C(C)/C=C(/C)Nc1c(CC)cccc1CC
Found: 0.00138

----------
# condition-notes: in n-hexane, 278.15 K
quantity-measured: solubility (mole fraction)
I'd appreciate a reply containing only the number, no unit.

Lookup: Give the reported solubility (mole fraction) for this compound. CCc1cccc(CC)c1/N=C(C)/C=C(/C)Nc1c(CC)cccc1CC
Found: 0.0609

----------
# condition-notes: in ethanol, 288.15 K
quantity-measured: solubility (mole fraction)
Please reply with the value in numeric form only.

Lookup: Please indicate solubility (mole fraction) recorded for CCc1cccc(CC)c1/N=C(C)/C=C(/C)Nc1c(CC)cccc1CC
Found: 0.00315

----------
# condition-notes: in diethyl ether, 298.15 K
quantity-measured: solubility (mole fraction)
Give a plain numeric answer without units written out.

Lookup: Give recorded solubility (mole fraction). CCc1cccc(CC)c1/N=C(C)/C=C(/C)Nc1c(CC)cccc1CC
Found: 0.248

----------
# condition-notes: in diethyl ether, 273.15 K
quantity-measured: solubility (mole fraction)
I'd appreciate a reply containing only the number, no unit.

Lookup: Give reported solubility (mole fraction) value for CCc1cccc(CC)c1/N=C(C)/C=C(/C)Nc1c(CC)cccc1CC
Found: 0.0961

----------
# condition-notes: in toluene, 313.15 K
quantity-measured: solubility (mole fraction)

Lookup: Note solubility (mole fraction) for the compound shown: CCc1cccc(CC)c1/N=C(C)/C=C(/C)Nc1c(CC)cccc1CC
Found: 0.342

----------
# condition-notes: in toluene, 278.15 K
quantity-measured: solubility (mole fraction)
Response field accepts a number only; no unit should be typed.

Lookup: Supply solubility (mole fraction) value. Item: CCc1cccc(CC)c1/N=C(C)/C=C(/C)Nc1c(CC)cccc1CC
Found: 0.178

----------
# condition-notes: in n-hexane, 288.15 K
quantity-measured: solubility (mole fraction)
Answer with a number only.

Lookup: Give me measured solubility (mole fraction), please, for this compound: CCc1cccc(CC)c1/N=C(C)/C=C(/C)Nc1c(CC)cccc1CC
Found: 0.0964

----------
# condition-notes: in ethanol, 313.15 K
quantity-measured: solubility (mole fraction)
The response must contain the number and no unit.

Lookup: Return solubility (mole fraction) (reported value) for this compound: CCc1cccc(CC)c1/N=C(C)/C=C(/C)Nc1c(CC)cccc1CC
Found: 0.00964

----------
# condition-notes: in n-hexane, 268.15 K
quantity-measured: solubility (mole fraction)
A bare number is all that is needed in reply.

Lookup: Identify measured solubility (mole fraction) corresponding to CCc1cccc(CC)c1/N=C(C)/C=C(/C)Nc1c(CC)cccc1CC
Found: 0.0373

----------
# condition-notes: in n-hexane, 293.15 K
quantity-measured: solubility (mole fraction)

Lookup: Note solubility (mole fraction) for the compound shown: CCc1cccc(CC)c1/N=C(C)/C=C(/C)Nc1c(CC)cccc1CC
Found: 0.12

----------
# condition-notes: in ethanol, 273.15 K
quantity-measured: solubility (mole fraction)
Format: numeric value only, no unit, no commentary.

Lookup: Return solubility (mole fraction) (reported value) for this molecule: CCc1cccc(CC)c1/N=C(C)/C=C(/C)Nc1c(CC)cccc1CC
Found: 0.00186

----------
# condition-notes: in THF, 293.15 K
quantity-measured: solubility (mole fraction)

Lookup: In one line, give reported solubility (mole fraction) of the entry CCc1cccc(CC)c1/N=C(C)/C=C(/C)Nc1c(CC)cccc1CC .
Found: 0.246

----------
# condition-notes: in diethyl ether, 278.15 K
quantity-measured: solubility (mole fraction)
Format: numeric value only, no unit, no commentary.

Lookup: Look up and report measured solubility (mole fraction) for this entry: CCc1cccc(CC)c1/N=C(C)/C=C(/C)Nc1c(CC)cccc1CC
Found: 0.123

----------
# condition-notes: in diethyl ether, 288.15 K
quantity-measured: solubility (mole fraction)
The reply should be a number, written without any unit.

Lookup: Report solubility (mole fraction) for CCc1cccc(CC)c1/N=C(C)/C=C(/C)Nc1c(CC)cccc1CC
Found: 0.184

----------
# condition-notes: in ethanol, 298.15 K
quantity-measured: solubility (mole fraction)
Respond with the number and no other words.

Lookup: Specify reported solubility (mole fraction) for the compound shown: CCc1cccc(CC)c1/N=C(C)/C=C(/C)Nc1c(CC)cccc1CC
Found: 0.00476

----------
# condition-notes: in ethanol, 308.15 K
quantity-measured: solubility (mole fraction)
Answer with a bare number; do not write a unit.

Lookup: Please give measured solubility (mole fraction) of the following entry: CCc1cccc(CC)c1/N=C(C)/C=C(/C)Nc1c(CC)cccc1CC
Found: 0.00738

----------
# condition-notes: in methanol, 298.15 K
quantity-measured: solubility (mole fraction)
# print the numeric value only

Lookup: Input CCc1cccc(CC)c1/N=C(C)/C=C(/C)Nc1c(CC)cccc1CC , output reported solubility (mole fraction).
Found: 0.0011

----------
# condition-notes: in toluene, 303.15 K
quantity-measured: solubility (mole fraction)

Lookup: Recall and state the measured solubility (mole fraction) for CCc1cccc(CC)c1/N=C(C)/C=C(/C)Nc1c(CC)cccc1CC .
Found: 0.284

----------
# condition-notes: in toluene, 283.15 K
quantity-measured: solubility (mole fraction)
Lab note: jot down the number only; don't add units.

Lookup: Look up solubility (mole fraction) of CCc1cccc(CC)c1/N=C(C)/C=C(/C)Nc1c(CC)cccc1CC and report it.
Found: 0.196
